Target: WT nNOSoxy (oxygenase domain of rat neuronal nitric oxide synthase) (Rattus norvegicus, UniProt P29476, V567S)
Construct: gene Nos1; oxygenase domain, aa 1-720 plus 6-histidine tag, plasmid pCWnNOSoxy, E. coli BL21(DE3), HisTrap purification
Sequence (P29476 1-720 V567S): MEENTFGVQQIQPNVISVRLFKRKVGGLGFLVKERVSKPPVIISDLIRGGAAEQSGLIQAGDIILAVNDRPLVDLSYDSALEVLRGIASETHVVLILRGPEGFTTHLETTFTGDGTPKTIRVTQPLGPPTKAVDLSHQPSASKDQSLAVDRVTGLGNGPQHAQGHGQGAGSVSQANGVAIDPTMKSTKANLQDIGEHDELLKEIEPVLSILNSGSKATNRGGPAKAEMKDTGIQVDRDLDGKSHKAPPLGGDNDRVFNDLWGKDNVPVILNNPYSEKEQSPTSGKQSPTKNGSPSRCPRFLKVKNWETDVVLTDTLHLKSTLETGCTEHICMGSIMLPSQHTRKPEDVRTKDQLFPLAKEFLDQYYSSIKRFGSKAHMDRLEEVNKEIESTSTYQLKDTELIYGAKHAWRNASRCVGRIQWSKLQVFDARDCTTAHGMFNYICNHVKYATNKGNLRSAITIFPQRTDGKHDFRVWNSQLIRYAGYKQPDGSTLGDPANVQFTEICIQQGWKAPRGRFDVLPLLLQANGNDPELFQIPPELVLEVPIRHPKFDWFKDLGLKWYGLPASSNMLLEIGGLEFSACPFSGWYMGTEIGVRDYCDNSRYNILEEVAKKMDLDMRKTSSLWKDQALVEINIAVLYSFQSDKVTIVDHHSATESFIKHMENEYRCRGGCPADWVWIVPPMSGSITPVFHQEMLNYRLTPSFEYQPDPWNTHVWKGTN
Experiment: biochemical
Parameters: UV-visible perturbation difference spectroscopy; displacement of heme-bound imidazole (0.5 mM), apparent dissociation constant
Settings: read-out: Val567Ser
Method: The native enzymes (~1–2 μM) were incubated 5 min at 4 °C in 50 mM HEPES buffer pH 7.4 in the presence of 0.5 mM ImH and then equally divided into reference and sample cuvettes. […] Apparent dissociation constants (K s,app) were estimated by plotting the difference in absorbance between peak (~395 nm) and valley (~430 nm) as a function of added substrate or substrate analogue concentrations and fitting the data to a hyperbolic one‐site binding model by Origin (OriginLab Corp., Northampton, MA, USA). […]
READOUT LABEL: Kd (µM)

COMPOUND	UNIT STRING	Kd
CC(C)NC(=N)N [compound 9, Isopropyl-guanidine]	µM	34.2

[a] CCCCNC(=N)N [compound 6, n-Butyl-guanidine]
[b] N=C(N)NC1CC1 [compound 8, Cyclopropyl-guanidine]
[c] N=C(N)Nc1ccc(F)cc1 [compound 11, 4-fluorophenyl-guanidine]
[d] CCCNC(=N)N [compound 5, n-Propyl-guanidine]
[e] COc1ccc(NC(=N)N)cc1 [compound 12, 4-methoxyphenyl-guanidine]
rank_up(items): orders items by reported Kd in ascending numerical order. Answer by listing the labels in the order asked for.
c, e, b, d, a

###

Target: WT nNOSoxy (oxygenase domain of rat neuronal nitric oxide synthase) (Rattus norvegicus, UniProt P29476, V567R)
Construct: gene Nos1; oxygenase domain, aa 1-720 plus 6-histidine tag, plasmid pCWnNOSoxy, E. coli BL21(DE3), HisTrap purification
Sequence (P29476 1-720 V567R): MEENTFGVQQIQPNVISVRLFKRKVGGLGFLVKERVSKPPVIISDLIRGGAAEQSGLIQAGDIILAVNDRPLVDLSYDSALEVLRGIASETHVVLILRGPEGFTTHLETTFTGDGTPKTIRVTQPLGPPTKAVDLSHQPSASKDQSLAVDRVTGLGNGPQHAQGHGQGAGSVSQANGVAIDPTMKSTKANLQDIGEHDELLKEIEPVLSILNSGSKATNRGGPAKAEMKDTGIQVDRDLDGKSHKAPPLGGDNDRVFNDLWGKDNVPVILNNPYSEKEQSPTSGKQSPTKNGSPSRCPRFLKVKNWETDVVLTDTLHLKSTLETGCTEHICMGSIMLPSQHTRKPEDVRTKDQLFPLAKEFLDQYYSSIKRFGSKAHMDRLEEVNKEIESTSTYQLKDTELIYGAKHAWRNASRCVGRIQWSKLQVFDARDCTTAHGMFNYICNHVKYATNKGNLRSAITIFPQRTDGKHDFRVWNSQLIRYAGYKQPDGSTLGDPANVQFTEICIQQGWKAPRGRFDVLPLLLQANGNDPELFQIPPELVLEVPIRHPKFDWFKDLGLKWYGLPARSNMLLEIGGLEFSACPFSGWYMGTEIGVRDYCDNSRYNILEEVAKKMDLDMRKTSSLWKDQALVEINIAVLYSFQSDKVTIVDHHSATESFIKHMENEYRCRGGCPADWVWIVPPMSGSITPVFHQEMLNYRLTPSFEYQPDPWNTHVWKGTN
Assay: biochemical
Design: UV-visible perturbation difference spectroscopy; displacement of heme-bound imidazole (0.5 mM), apparent dissociation constant
Details: read-out: Val567Arg
READOUT LABEL: pKd
Worth noting: pKd values are minus log10 of concentrations stated in mol/L.

In plain terms, N=C(N)NC1CC1 has a documented pKd of 3.63

###

Target: WT nNOSoxy (oxygenase domain of rat neuronal nitric oxide synthase) (Rattus norvegicus, UniProt P29476, V567T)
Construct: gene Nos1; oxygenase domain, aa 1-720 plus 6-histidine tag, plasmid pCWnNOSoxy, E. coli BL21(DE3), HisTrap purification
Sequence (P29476 1-720 V567T): as the sequence (P29476 1-720 V567R) above, with R567T counted along it
Experiment: UV-visible difference spectroscopy, heme-Fe(III)-imidazole complex formation
Assay type: binding
Settings: read-out: Val567Thr
READOUT LABEL: Kd (µM)
# output: bare number, implied unit µM

In plain terms, c1c[nH]cn1 has a documented Kd of 93

###

Target: WT nNOSoxy (oxygenase domain of rat neuronal nitric oxide synthase) (Rattus norvegicus, UniProt P29476, V567T)
Construct: gene Nos1; oxygenase domain, aa 1-720 plus 6-histidine tag, plasmid pCWnNOSoxy, E. coli BL21(DE3), HisTrap purification
Test: biochemical
Set-up: UV-visible perturbation difference spectroscopy; displacement of heme-bound imidazole (0.5 mM), apparent dissociation constant
Conditions: read-out: Val567Thr
READOUT LABEL: Kd (µM)

Sample records with Kd:
SMI	READOUT LABEL	UNIT STRING	OBSERVED RESULT
N=C(N)NC1CC1	Kd	µM	20.2
CCCNC(=N)N	Kd	µM	267

[I] CCCCNC(=N)N
[II] COc1ccc(NC(=N)N)cc1
[III] CC(C)NC(=N)N
Arrange by Kd, high to low. Answer by listing the labels in the order asked for.
II, III, I
